What half-life at 3 µM was measured for each of the following?
# experiment.notes: Plasma stability assay at 37 °C via LC-MS/MS, human plasma
# Type: in vitro ADME
# stated.conditions: human, plasma, read-out: Plasma, 37 °C t½ (Table S23) (converted)
One number for each entry, in h.

Reference set (5 entries):
molecule	quantity.name	units.text	reported.measurement
CNCCN(CCn1ccnc1)C(=O)O/N=C(\C)[C@H]1CC[C@H]2[C@@H]3CCC4C[C@H](O)CC[C@]4(C)[C@H]3CC[C@]12C (stereo partly drawn) [21k]	half-life at 3 µM	h	0.81
CNC1(CN(C)C(=O)O/N=C(\C)[C@H]2CC[C@H]3[C@@H]4CCC5=CC(=O)CC[C@]5(C)[C@H]4CC[C@]23C)CCC1 [20t]	half-life at 3 µM	h	0.44
C/C(=N\OC(=O)N(CCO)CCNCCO)[C@H]1CC[C@H]2[C@@H]3CCC4=CC(=O)CC[C@]4(C)[C@H]3CC[C@]12C.Cl [20z]	half-life at 3 µM	h	2.3
CNCCN(C(=O)O/N=C(\C)[C@H]1CC[C@H]2[C@@H]3CCC4=CC(=O)CC[C@]4(C)[C@H]3CC[C@]12C)C(C)C.O=C(O)C(F)(F)F [20c]	half-life at 3 µM	h	1.59
CNCCN(C)C(=O)O/N=C(\C)[C@H]1CC[C@H]2[C@@H]3CCC4=CC(=O)CC[C@]4(C)[C@H]3CC[C@]12C [20a]	half-life at 3 µM	h	2.45

// batch mode: one half-life at 3 µM value per listed entry
1. C/C(=N\OC(=O)N(C)C[C@@H]1CC2(CC2)CN1)[C@H]1CC[C@H]2[C@@H]3CCC4=CC(=O)CC[C@]4(C)[C@H]3CC[C@]12C [20q]
2. CNCCN(C(=O)O/N=C(\C)[C@H]1CC[C@H]2[C@@H]3CCC4C[C@H](O)CC[C@]4(C)[C@H]3CC[C@]12C)C1CC1.O=C(O)C(F)(F)F (stereo partly drawn) [21b]
3. C/C(=N\OC(=O)N(C)C[C@@H]1CCCN1)[C@H]1CC[C@H]2[C@@H]3CCC4C[C@H](O)CC[C@]4(C)[C@H]3CC[C@]12C (stereo partly drawn) [21l]
4. CNCCN(C(=O)O/N=C(\C)[C@H]1CC[C@H]2[C@@H]3CCC4=CC(=O)CC[C@]4(C)[C@H]3CC[C@]12C)C1CCCC1.O=C(O)C(F)(F)F [20e]
5. CNCCN(C(=O)O/N=C(\C)[C@H]1CC[C@H]2[C@@H]3CCC4=CC(=O)CC[C@]4(C)[C@H]3CC[C@]12C)C1CC1.O=C(O)C(F)(F)F [20b]

Response:
0.65
0.73
0.36
4.02
1.27

----------
What log10(half-life at 3 µM) was measured for each of the following?
# experiment.notes: Plasma stability assay at 37 °C via LC-MS/MS, human plasma
# Format: in vitro ADME
# stated.conditions: human, plasma, read-out: Plasma, 37 °C t½ (Table S23) (converted)
Could you please treat all values as log10 of half-life at 3 µM in min?

Reference set (5 entries):
molecule	reported.measurement
CNCCN(CC(C)C)C(=O)O/N=C(\C)[C@H]1CC[C@H]2[C@@H]3CCC4=CC(=O)CC[C@]4(C)[C@H]3CC[C@]12C.O=C(O)C(F)(F)F [20f]	2.46
C/C(=N\OC(=O)N(C)C[C@@H]1CCCN1)[C@H]1CC[C@H]2[C@@H]3CCC4=CC(=O)CC[C@]4(C)[C@H]3CC[C@]12C.O=C(O)C(F)(F)F [20l]	1.27
C/C(=N\OC(=O)N(CCN(C)C)CCN(C)C)[C@H]1CC[C@H]2[C@@H]3CCC4=CC(=O)CC[C@]4(C)[C@H]3CC[C@]12C [20y]	2.73
CNCCN(C(=O)O/N=C(\C)[C@H]1CC[C@H]2[C@@H]3CCC4C[C@H](O)CC[C@]4(C)[C@H]3CC[C@]12C)C(C)C.O=C(O)C(F)(F)F (stereo partly shown) [21c]	1.66
CNCCN(C(=O)O/N=C(\C)[C@H]1CC[C@H]2[C@@H]3CCC4C[C@H](O)CC[C@]4(C)[C@H]3CC[C@]12C)C1CCC1.O=C(O)C(F)(F)F (stereo partly shown) [21d]	1.66

// batch mode: one log10(half-life at 3 µM) value per listed entry
1. C/C(=N\OC(=O)N(C)C[C@@H]1C[C@H](N(C)C)CN1)[C@H]1CC[C@H]2[C@@H]3CCC4=CC(=O)CC[C@]4(C)[C@H]3CC[C@]12C [20u]
2. CNCCN(CCn1ccnc1)C(=O)O/N=C(\C)[C@H]1CC[C@H]2[C@@H]3CCC4=CC(=O)CC[C@]4(C)[C@H]3CC[C@]12C [20k]
3. CNCCN(C(=O)O/N=C(\C)[C@H]1CC[C@H]2[C@@H]3CCC4=CC(=O)CC[C@]4(C)[C@H]3CC[C@]12C)C1CCC1.O=C(O)C(F)(F)F [20d]
4. C/C(=N\OC(=O)N(C)C[C@@H]1CCN1)[C@H]1CC[C@H]2[C@@H]3CCC4=CC(=O)CC[C@]4(C)[C@H]3CC[C@]12C [20o]
5. C/C(=N\OC(=O)N(C)C[C@H]1CCCN1)[C@H]1CC[C@H]2[C@@H]3CCC4=CC(=O)CC[C@]4(C)[C@H]3CC[C@]12C.O=C(O)C(F)(F)F [20m]
6. CNCCN(CCCN1CCOCC1)C(=O)O/N=C(\C)[C@H]1CC[C@H]2[C@@H]3CCC4=CC(=O)CC[C@]4(C)[C@H]3CC[C@]12C.O=C(O)C(F)(F)F [20i]
7. CNCCN(C)C(=O)O/N=C(\C)[C@H]1CC[C@H]2[C@@H]3CCC4C[C@H](O)CC[C@]4(C)[C@H]3CC[C@]12C.O=C(O)C(F)(F)F (stereo partly shown) [21a]

Response:
[1.65, 2.28, 2.20, 1.24, 1.32, 2.10, 1.55]

----------
# experiment.notes: Stability in PBS at room temperature via HPLC (UV)
# Format: physicochemical
# stated.conditions: phosphate-buffered saline (DPBS), pH 7.03, DPBS pH 7.03, RT, 1 mg/mL, HPLC 254 nm; read-out: t1/2 in PBS buffer at RT (Tables S1-S4) (converted)
quantity.name: half-life at 1 mg/mL (h)
Answers are plain numbers, in h.

molecule	half-life at 1 mg/mL (h)
C/C(=N\OC(=O)N(CCO)CCNCCO)[C@H]1CC[C@H]2[C@@H]3CCC4=CC(=O)CC[C@]4(C)[C@H]3CC[C@]12C.Cl [20z]	28.8
C/C(=N\OC(=O)N(C)C[C@@H]1C[C@H](N(C)C)CN1)[C@H]1CC[C@H]2[C@@H]3CCC4=CC(=O)CC[C@]4(C)[C@H]3CC[C@]12C [20u]	7.53
C/C(=N\OC(=O)N(CCN(C)C)CCN(C)C)[C@H]1CC[C@H]2[C@@H]3CCC4=CC(=O)CC[C@]4(C)[C@H]3CC[C@]12C [20y]	0.017
C/C(=N\OC(=O)N(C)C[C@@H]1CCCN1)[C@H]1CC[C@H]2[C@@H]3CCC4=CC(=O)CC[C@]4(C)[C@H]3CC[C@]12C.O=C(O)C(F)(F)F [20l]	1.9
C/C(=N\OC(=O)N(C)C[C@@H]1CC2(CC2)CN1)[C@H]1CC[C@H]2[C@@H]3CCC4=CC(=O)CC[C@]4(C)[C@H]3CC[C@]12C [20q]	4.35

Consider now this further molecule.
Sample CNCCN(CCN(C)C)C(=O)O/N=C(\C)[C@H]1CC[C@H]2[C@@H]3CCC4=CC(=O)CC[C@]4(C)[C@H]3CC[C@]12C [20g] ; half-life at 1 mg/mL observed: 2.17

----------
# experiment.notes: Plasma stability assay at 37 °C via LC-MS/MS, human plasma;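 note: prodrugs at 3 µM incubated in human plasma at 37 °C, intact prodrug quantified by LC-MS/MS over time, values are means of duplicate runs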
# Format: in vitro ADME
# stated.conditions: human, plasma, LC-MS/MS, read-out: Half-life (t½) Plasma 37°C (converted)
What half-life at 3 µM was measured for each of the following?
Answers are plain numbers, in h.

Reference set (5 entries):
compound	reported.measurement
CNCCN(C(=O)O/N=C(\C)[C@H]1CC[C@H]2[C@@H]3CCC4C[C@H](O)CC[C@]4(C)[C@H]3CC[C@]12C)C1CC1.O=C(O)C(F)(F)F (stereo partly drawn) [21b]	0.73
CNCCN(C(=O)O/N=C(\C)[C@H]1CC[C@H]2[C@@H]3CCC4=CC(=O)CC[C@]4(C)[C@H]3CC[C@]12C)C1CC1.O=C(O)C(F)(F)F [20b]	1.27
CNC1(CN(C)C(=O)O/N=C(\C)[C@H]2CC[C@H]3[C@@H]4CCC5=CC(=O)CC[C@]5(C)[C@H]4CC[C@]23C)CCC1 [20t]	0.43
C/C(=N\OC(=O)N(C)C[C@@H]1C[C@H](N(C)C)CN1)[C@H]1CC[C@H]2[C@@H]3CCC4=CC(=O)CC[C@]4(C)[C@H]3CC[C@]12C [20u]	0.73
CNCCN(C)C(=O)O/N=C(\C)[C@H]1CC[C@H]2[C@@H]3CCC4=CC(=O)CC[C@]4(C)[C@H]3CC[C@]12C [20a]	2.49

Consider now this further compound.
Sample CNCCN(C(=O)O/N=C(\C)[C@H]1CC[C@H]2[C@@H]3CCC4=CC(=O)CC[C@]4(C)[C@H]3CC[C@]12C)C1CCCC1.O=C(O)C(F)(F)F [20e] ; half-life at 3 µM observed: 3.09
